Examples of compounds with documented cytotoxicity at 70.5 h follow.
assay: Human HepG2 cell viability assay in 384 well format; type: toxicity, cell-based; parameters: dose 125 nL, time 70.5 hour; concentration not given beside the values; settings: HepG2 cells, read-out: Inhibition
Just the number in %, nothing appended.

What cytotoxicity at 70.5 h value was documented for this compound, O=C(c1cccc2c1OCO2)N1CCCC(n2ccnc2)C1 (stereo unspecified) ? -10.3

What cytotoxicity at 70.5 h value was documented for this compound, `CSC1(CNC(=O)N(C)Cc2ccc(C)s2)CCOCC1` ? 15.5

----------
assay: Human HepG2 cell viability assay in 384 well format; assay type: toxicity, cell-based; set-up: dose 125 nL, time 70.5 hour; concentration not given beside the values; conditions: HepG2 cells, read-out: Inhibition
Examples of compounds with documented cytotoxicity at 70.5 h follow.
Just the number in %, nothing appended.

Consider the worked cases shown below.
- COMPOUND: "N#Cc1ccc(NC(=O)N2CCCCC2CN2CCCC2=O)cc1 (configuration not stated)"
  RESULT_UNITS: "%"
  cytotoxicity at 70.5 h: -11
- COMPOUND: "COC(=O)c1cccc(C2CNCCN2C(C)=O)c1 (configuration not stated)"
  RESULT_UNITS: "%"
  cytotoxicity at 70.5 h: 21.6
- COMPOUND: "OC(CNCCn1cccn1)c1ccc(C(F)(F)F)cc1 (configuration not stated)"
  RESULT_UNITS: "%"
  cytotoxicity at 70.5 h: -4.94
- COMPOUND: "Cc1ccc(-c2ccnc(N3CCC4(CCO4)CC3)n2)c(C)n1"
  RESULT_UNITS: "%"
  cytotoxicity at 70.5 h: -6.98

What cytotoxicity at 70.5 h value was documented for this compound, `CCn1c(C2CCN(C(=O)COCC(F)(F)C(F)F)CC2)n[nH]c1=O` ? -6.79

What cytotoxicity at 70.5 h value was documented for this compound, `CCOC(=O)C1(NC(=O)CCNc2cc(C)ccc2OC)CCCCC1` ? -4.71

What cytotoxicity at 70.5 h value was documented for this compound, Fc1cccc(N2CCCC3(CN(Cc4cccnc4)CCO3)C2)c1 (configuration not stated) ? -6.89

What cytotoxicity at 70.5 h value was documented for this compound, `Cc1ccsc1CNC(=O)CCc1c(C)nc2cc(O)nn2c1C` ? -10.8

What cytotoxicity at 70.5 h value was documented for this compound, `CSCc1cc(F)ccc1CNC(=O)N1CCOCC1` ? -10.7

What cytotoxicity at 70.5 h value was documented for this compound, `Cc1nc2c(c(NCCc3nc(C)c(Cl)s3)n1)CCNCC2` ? -11

What cytotoxicity at 70.5 h value was documented for this compound, `Cn1c(C(=O)NC2CCCC2)nc2c1CCN(Cc1ccccc1)C2` ? -5.5

What cytotoxicity at 70.5 h value was documented for this compound, `O=C(NCCCOc1cccnc1)c1cn(CCc2ccccc2)nn1` ? -7.58

----------
assay: Human HepG2 cell viability assay in 384 well format; format: toxicity, cell-based; set-up: dose 125 nL, time 70.5 hour; concentration not given beside the values; settings: HepG2 cells, read-out: Inhibition
ASSAY_READOUT: cytotoxicity at 70.5 h (%)
Just the number in %, nothing appended.

Consider the worked cases shown below.
- COMPOUND: "COc1cccc(NC(=O)NC2(c3noc(CN(C)C)n3)CCCC2)c1"
  RESULT_UNITS: "%"
  MEASURED_NUMBER: -10.2
- COMPOUND: "CCS(=O)(=O)N1C[C@H]2CN(CC3CC3)C(=O)[C@H]2C1"
  RESULT_UNITS: "%"
  MEASURED_NUMBER: -0.251
- COMPOUND: "CCN(CC)C(=O)CN1CCCC(c2nc(C)c3c(n2)N(C)CCC3)C1 (configuration not stated)"
  RESULT_UNITS: "%"
  MEASURED_NUMBER: 0.707
- COMPOUND: "NC(=O)c1cccc(CCNC(=O)N2CCCC2)c1"
  RESULT_UNITS: "%"
  MEASURED_NUMBER: -8
- COMPOUND: "CN(CC1CCN(CCO)CC1)CC(O)c1ccc(F)cc1 (configuration not stated)"
  RESULT_UNITS: "%"
  MEASURED_NUMBER: -5.05
- COMPOUND: "CCNc1ncc(C(=O)NCCNc2ccncc2C)cn1"
  RESULT_UNITS: "%"
  MEASURED_NUMBER: 3.69
- COMPOUND: "O=C(c1cnc(C2CC2)nc1O)N1CCN(Cc2ccccc2F)CC1"
  RESULT_UNITS: "%"
  MEASURED_NUMBER: 0.38
- COMPOUND: "O=C(Cc1ccccn1)N1CCn2cc(Cn3cncn3)nc2C1"
  RESULT_UNITS: "%"
  MEASURED_NUMBER: 0.952

What cytotoxicity at 70.5 h value was documented for this compound, `O=C1CC[C@]2(CC[C@@H](NCc3ccsc3)CC2)N1Cc1ccccc1` ? -3.82

What cytotoxicity at 70.5 h value was documented for this compound, `COc1cccc(CN(C)Cc2c(C)noc2C)c1OC` ? -3.33

What cytotoxicity at 70.5 h value was documented for this compound, `CC(C)c1nnc2n1CCN(c1nc3ccccc3o1)C2` ? -10.1

What cytotoxicity at 70.5 h value was documented for this compound, `O=C(NCCCC(=O)N1Cc2ccccc2C1)NCc1ccsc1` ? 5.3

----------
test: Human HepG2 cell viability assay in 384 well format; format: toxicity, cell-based; design: dose 125 nL, time 70.5 hour; concentration not given beside the values; conditions: HepG2 cells, read-out: Inhibition
ASSAY_READOUT: cytotoxicity at 70.5 h (%)
Just the number in %, nothing appended.

Consider the worked cases shown below.
- MOLECULE: "CC(C)(C)c1nnc(NCC(=O)N2CCc3sccc3C2)s1"
  RESULT_UNITS: "%"
  cytotoxicity at 70.5 h: -10.5
- MOLECULE: "CCNC(=O)[C@@H]1C[C@H](N)CN1Cc1ccc(Sc2ccc(C)cc2)o1"
  RESULT_UNITS: "%"
  cytotoxicity at 70.5 h: -13.8
- MOLECULE: "O=C([C@H]1C[C@@H]2CCN(c3cccc(F)c3)C[C@H]2O1)N1CCCCO1"
  RESULT_UNITS: "%"
  cytotoxicity at 70.5 h: -13.4
- MOLECULE: "Cc1nn(C)c(C)c1OCC(=O)N1CCCCC1"
  RESULT_UNITS: "%"
  cytotoxicity at 70.5 h: -2.11

// switching to the query molecule
What cytotoxicity at 70.5 h value was documented for this molecule, Cc1nc(C2CN(C)CCO2)cc(N2CCSCC2)n1 (stereo unspecified) ? 26.1

----------
experiment: Human HepG2 cell viability assay in 384 well format; assay type: toxicity, cell-based; design: dose 125 nL, time 70.5 hour; concentration not given beside the values; details: HepG2 cells, read-out: Inhibition
ASSAY_READOUT: cytotoxicity at 70.5 h (%)
Just the number in %, nothing appended.

- COMPOUND: "Cc1cc(CN2CC3(CCN(C(=O)C4CC4)CC3)CC2C(=O)O)oc1C (centres undefined)"
  cytotoxicity at 70.5 h / %: -7.26
- COMPOUND: "COC(=O)CCNC(=O)c1ccoc1CN1c2ccccc2CC1C (centres undefined)"
  cytotoxicity at 70.5 h / %: -1.15
- COMPOUND: "Cc1cc2c(cc1Cl)C=CC1(CCN(CC(=O)N3CCOCC3)CC1)O2"
  cytotoxicity at 70.5 h / %: 25.7
- COMPOUND: "CCc1nc(CN2CCN(CC(O)c3ccccc3)CC2)no1 (centres undefined)"
  cytotoxicity at 70.5 h / %: 17.3
- COMPOUND: "CCn1nc(C)c(CN(CCOC)C(=O)c2ccc(=O)[nH]n2)c1C"
  cytotoxicity at 70.5 h / %: -4.87
- COMPOUND: "O=C(C1CC1)N1CCC2(COCc3cnc(N4CCOCC4)nc32)C1 (centres undefined)"
  cytotoxicity at 70.5 h / %: -12.6
- COMPOUND: "O=C1CO[C@@H]2CN(C3CCOCC3)C[C@H]2N1Cc1cccc(F)c1"
  cytotoxicity at 70.5 h / %: -6.55
- COMPOUND: "Cc1cccc2cc(CNCCCN3CCOCC3)c(=O)[nH]c12"
  cytotoxicity at 70.5 h / %: 33.6
- COMPOUND: "CC(C)(O)CCc1ccc(C(=O)NCC2CCCOC2)cc1 (centres undefined)"
  cytotoxicity at 70.5 h / %: -2.37
- COMPOUND: "O=C(c1cccc(OCc2cscn2)c1)N1CCOCC1"
  cytotoxicity at 70.5 h / %: 0.0866

What cytotoxicity at 70.5 h value was documented for this compound, O=C(NC[C@@H]1CCCO1)c1cccnc1N1CCCC1c1ccccn1 (some centres undefined) ? -3.08

What cytotoxicity at 70.5 h value was documented for this compound, `CCN(Cc1noc(CC(C)C)n1)Cc1ccccc1OCC(=O)O` ? -2.84

What cytotoxicity at 70.5 h value was documented for this compound, CCCS(=O)(=O)N1CC(=O)N(CCCc2ccccc2)CC(O)C1 (centres undefined) ? 10.8

What cytotoxicity at 70.5 h value was documented for this compound, `CS(=O)(=O)c1cnc(N2CCCC2)nc1C1CCN(C(=O)C2CC2)CC1` ? 0.997

What cytotoxicity at 70.5 h value was documented for this compound, Cc1cnn(CC2CCCN2Cc2cc(C)no2)c1 (centres undefined) ? -14
